Ref: ChEMBL document CHEMBL1629554

Test system: Human immunodeficiency virus 1
Assay: Antiviral activity against reverse transcriptase and protease inhibitor-resistant HIV-1 isolate HI99-58 harboring reverse transcriptase D67N, K70R, A98S, Y181C, K219Q and protease M36I, L63P, I93L mutant gene infected in human PBMC
Type: functional, organism-based
Details: Human immunodeficiency virus 1, isolate HI99-58
assay.endpoint: EC50
Include the unit right after the number.

QUERY: Quickly give me recorded EC50 for NC(=O)C(N)O (stereo unspecified)
RESULT: 7.6 µM

====

Test system: Human respirovirus 3
Assay: Antiviral activity against Parainfluenza virus 3 infected in african green monkey Vero cells
Type: functional, organism-based
Conditions: Human respirovirus 3, Vero
assay.endpoint: EC50 (mM)
Report as a plain number; the unit mM is understood.

QUERY: Name the recorded EC50 of the compound listed here: NC(=O)C(N)O (stereo unspecified)
RESULT: 2
